- assay text: chemical genetic growth profiling, strain panel (AID 1159580);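 further: tested at 20 µM; growth read once vehicle control cultures reached saturation at 30 °C; 1 = growth at the plate median or of vehicle wells; lower values mean less growth of the strain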
- recorded conditions: S. cerevisiae deletion strains, growth OD, locus YOR290C, strain snf2
The whole screen tested about 5,500 compounds, of which about 2,000 (36%) were called active. Roughly 18% stayed inconclusive and do not appear here. No stated cut-off is given here; in the data, active means normalized growth mostly below about 0.91 (no sharp cut-off); inconclusive means no clear call, values can overlap the other calls; inactive means mostly above about 0.92. The list shows a part of the results.
Outcome codes: 1 (active), -1 (inactive)

molecule	qualitative label
COc1c2ccccc2nc2occc12	1
CC(CCC(=O)O)[C@H]1CCC2C3C(C[C@H](O)[C@@]21C)[C@@]1(C)CC[C@@H](O)C[C@H]1C[C@H]3O (some centres undefined)	-1
COc1ccc(C(=O)N2CCCC2=O)cc1	-1
CC(C)CCCC(C)C1CCC2C3CC[C@H]4CCCC[C@]4(C)C3CC[C@]12C (some centres undefined)	-1
CC1(C)C(O)CC(O)C2(C)C1CC(O)C1(C)C2CCC2(C)C(c3ccoc3)OC(=O)C3OC321 (centres undefined)	-1
CN(C)CCC(c1ccc(Br)cc1)c1ccccn1 (centres undefined)	-1
Nc1cc(-c2ccncc2)c[nH]c1=O	-1
CC(CCC(=O)O)[C@H]1CCC2C3CC[C@@H]4C[C@H](O)CC[C@]4(C)C3CC[C@@]21C (some centres undefined)	-1
C[C@H](CCC(=O)O)[C@H]1CCC2C3C(CC[C@@]21C)[C@@]1(C)CC[C@@H](O)C[C@H]1C[C@@H]3O (some centres undefined)	-1
COC(=O)CCCOc1ccc(Cl)cc1Cl	-1
COC(=O)CCC(C)[C@H]1CCC2C3C(C[C@H](O)[C@@]21C)[C@@]1(C)CC[C@@H](O)C[C@H]1C[C@H]3O (some centres undefined)	-1
CN(C)CCOC(=O)C(c1ccccc1)C1(O)CCCC1 (centres undefined)	-1
COc1c2ccoc2nc2c(OC)c(OCC(O)C(C)(C)O)ccc12 (centres undefined)	-1
COc1ccc(C(=O)CC(=O)c2ccc(C(C)(C)C)cc2)cc1	-1
